Data provenance: ChEMBL document CHEMBL1201862

System: NCI-H460
Assay: NCI tumour cell line growth inhibition, 48 h
The source made the active and inactive calls. Rule as the data show it: active = GI50 up to about 1.1 µM and inactive = higher.
Choose the fitting class; nothing outside active, inactive is accepted.

Look over these answered cases.
>  <molecule>
O=C(Nc1ccc(Sc2ccc(/N=N/c3c(O)c(S(=O)(=O)O)cc4cc(S(=O)(=O)O)ccc34)cc2)cc1)c1ccc(/N=N/c2c(O)ccc3c(S(=O)(=O)O)cc(S(=O)(=O)O)cc23)cc1

>  <target_or_system>
NCI-H460

>  <qualitative_label>
inactive

$$$$
>  <molecule>
COc1ccc(OC)c(/C=C/C(=O)C(C)(C)C)c1

>  <target_or_system>
NCI-H460

>  <qualitative_label>
inactive

$$$$
>  <molecule>
CCCCOP1(=O)CC(C)=C(Cl)C(C)(OC)C1 (configuration not stated)

>  <target_or_system>
NCI-H460

>  <qualitative_label>
inactive

$$$$
>  <molecule>
O=C(O)c1ccccc1-c1ccccc1C(=O)c1ccccc1

>  <target_or_system>
NCI-H460

>  <qualitative_label>
inactive

$$$$
>  <molecule>
Nc1ccc(CCN2CCN(c3cccc(C(F)(F)F)c3)CC2)cc1

>  <target_or_system>
NCI-H460

>  <qualitative_label>
inactive

$$$$

How was COc1ccc(C2Oc3c(cccc3OC)C=C2[N+](=O)[O-])cc1 (configuration not stated) classified in this test?
inactive

How was SC1=NC2(CCCCCC2)NN1c1ccccc1 classified in this test?
active

How was CCCCCCCCCCCCC(CC)CCCCC(=O)O (configuration not stated) classified in this test?
inactive

How was Cc1cc2c(nn1)-c1ccccc1C2=O classified in this test?
inactive

How was CC1=NNC(=O)C1C1CC(c2c[nH]c3ccccc23)=NN=C1Cl (configuration not stated) classified in this test?
inactive

How was COC(=O)C1CCC(C)CC1=O (configuration not stated) classified in this test?
inactive

How was CC12CCCC(C(=O)O)(C1)[C@H](C(C)(C)C(=O)O)CC2 (some centres not stated) classified in this test?
inactive
